Tested on: HT29 colon
Assay: NCI tumour cell line growth inhibition, 48 h; in the data active = GI50 below about 0.43 µM; inactive = the rest
Outcomes: label 1 (active), label 0 (inactive)

MOLECULE | CATEGORY
Fc1ccc(-c2c(-c3ccncc3)[nH]c3nccnc23)cc1 | label 0
O=C1NC(=N[C@H](CO)c2ccccc2)S/C1=C\c1ccc2ncccc2c1 | label 0
COc1cc(-c2nn(-c3cccc(NC(=O)CCN4CCN(C)CC4)c3)cc2-c2ccncc2)ccc1Cl | label 1
CN1CCN(c2ccc(Nc3ncc4cc5n(c4n3)C3(CCCCC3)CNC5=O)nc2)CC1 | label 1
OCc1ccc(N(Cc2ccc(F)cc2)CC2CCC2)cc1Cl | label 0
Oc1cccc(-c2nc(-c3ccccc3)[nH]c2-c2ccncc2)c1 | label 0
COc1ccc2c(c1)N(CCO)C1=C(C(=O)OC1)C2c1ccc(OC)c(OC)c1 (configuration not stated) | label 0
